Values compiled from ChEMBL document CHEMBL3856258.

experiment: Cytotoxicity against CHL cells assessed as growth rate at 5.41 ug/ml preincubated for 6 hrs followed by 18 hrs incubation in fresh medium in presence of S9 fraction by MTT assay relative to control; format: toxicity, cell-based, Cricetulus griseus; details: chinese hamster, read-out: Activity
recordedMetric: viability at 18 h, 5.41 ug/ml (%)
One number for each entry, in %.

So what does the record say about viability at 18 h, 5.41 ug/ml for COP(=O)(CCC(N)C(=O)O)Oc1cccc(CC(=O)O)c1 (stereo unspecified) ?
102

* * *

assay: Cytotoxicity against CHL cells assessed as growth rate at 1320 ug/ml after 24 hrs in absence of S9 fraction by MTT assay relative to control; type: toxicity, cell-based, Cricetulus griseus; conditions: chinese hamster, read-out: Activity
recordedMetric: viability at 24 h, 1320 ug/ml (%)
Numbers only, in %.

So what does the record say about viability at 24 h, 1320 ug/ml for COP(=O)(CCC(N)C(=O)O)Oc1cccc(CC(=O)O)c1 (stereo unspecified) ?
92.6

* * *

test: Cytotoxicity against CHL cells assessed as growth rate at 5.41 ug/ml preincubated for 6 hrs followed by 18 hrs incubation in fresh medium in absence of S9 fraction by MTT assay relative to control; assay type: toxicity, cell-based, Cricetulus griseus; conditions: chinese hamster, read-out: Activity
recordedMetric: viability at 18 h, 5.41 ug/ml
Report the figure along with its unit, number first.

So what does the record say about viability at 18 h, 5.41 ug/ml for COP(=O)(CCC(N)C(=O)O)Oc1cccc(CC(=O)O)c1 (stereo unspecified) ?
103%

* * *

test: Cytotoxicity against CHL cells assessed as growth rate at 528 ug/ml after 24 hrs in absence of S9 fraction by MTT assay relative to control; assay type: toxicity, cell-based, Cricetulus griseus; settings: chinese hamster, read-out: Activity
recordedMetric: viability at 24 h, 528 ug/ml (%)
Give bare numbers, in %.

So what does the record say about viability at 24 h, 528 ug/ml for COP(=O)(CCC(N)C(=O)O)Oc1cccc(CC(=O)O)c1 (stereo unspecified) ?
96

* * *

organism: Homo sapiens; test: Irreversible inhibition of human GGT using gamma-Glu-AMC as substrate assessed as association rate constant by […] analysis
recordedMetric: K (M⁻¹ s⁻¹)
Answers are plain numbers, in M⁻¹ s⁻¹.

1. COP(=O)(CCC(N)C(=O)O)Oc1cccc([N+](=O)[O-])c1 (mixture of isomers) | 49

Hello, I would appreciate it if you could give K for each entry below.
1. COP(=O)(CCC(N)C(=O)O)Oc1cccc(CC(N)=O)c1 (mixture of isomers)
2. COP(=O)(CCC(N)C(=O)O)Oc1cccc(CCC(=O)O)c1 (mixture of isomers)
3. COP(=O)(CCC(N)C(=O)O)Oc1ccc(C(=O)O)cc1 (mixture of isomers)
4. CCOC(=O)Cc1cccc(OP(=O)(CCC(N)C(=O)O)OC)c1 (mixture of isomers)
5. NC(CCP(=O)(Oc1ccccc1)Oc1ccccc1)C(=O)O (racemic)
6. NC(CCP(=O)(Oc1ccccc1)Oc1cccc(CC(=O)O)c1)C(=O)O (mixture of isomers)
7. COP(=O)(CCC(N)C(=O)O)Oc1ccc(CC(=O)O)cc1 (stereo unspecified)

[1.9, 7.7, 5.2, 1.2, 0.41, 40, 0.33]

Hello, I would appreciate it if you could give K for each entry below.
1. COP(=O)(CCC(N)C(=O)O)Oc1cccc(CC(=O)O)c1 (stereo unspecified)
2. COP(=O)(CCC(N)C(=O)O)Oc1ccccc1 (stereo unspecified)
3. COP(=O)(CCC(N)C(=O)O)Oc1cccc(C(=O)O)c1 (mixture of isomers)

1. 51
2. 0.4
3. 1.6
